Data origin, for the record: patent US20190233498A1

Target: T1, human VIP (human)
T1 construct: also called Vasoactive Intestinal Peptide
T1 peptide: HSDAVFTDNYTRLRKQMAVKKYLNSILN
Test: SPR, Ab immobilised
pKd: −log10 of the molar value.
Listing of entries alongside the reported pKd.
measured.attribute: pKd

binder="anti-PACAP antibody Ab23 (antibody, human IgG1, kappa, N297A, V domains shown, full-length rabbit/human chimeric antibody; PACAP38 specific) VH: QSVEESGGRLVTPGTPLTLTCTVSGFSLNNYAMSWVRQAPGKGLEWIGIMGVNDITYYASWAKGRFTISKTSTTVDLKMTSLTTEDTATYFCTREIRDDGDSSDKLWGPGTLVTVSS VL: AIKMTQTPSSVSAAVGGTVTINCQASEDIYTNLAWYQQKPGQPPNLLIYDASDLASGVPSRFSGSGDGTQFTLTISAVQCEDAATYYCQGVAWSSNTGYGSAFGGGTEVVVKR" measured_attribute=pKd val=6.14
binder="anti-PACAP antibody Ab4.H (antibody, human IgG1, kappa, N297A, V domains shown, humanized form of Ab4, full length) VH: EVQLVESGGGLVQPGGSLRLSCAASGFSLSSYDMSWVRQAPGKGLEWIGIINTNDDTWYASWVKGRFTISRDNSKNTLYLQMNSLRAEDTAVYYCARISDAYVFDYAYYFTLWGQGTLVTVSS VL: DIQMTQSPSTLSASVGDRVTITCLASQNIYNSLAWYQQKPGKAPKLLIYRASTLASGVPSRFSGSGSGTEFTLTISSLQPDDFATYYCQQGAGADNIGNPFGGGTKVEIKR" measured_attribute=pKd val=7.14
